The values you see were collected from ChEMBL document CHEMBL2218924.

The reader will find reported residual activity values listed item by item below.
assay system: Serine/threonine-protein kinase Nek2 (Homo sapiens) (UniProt P51955)
Sequence (P51955 whole entry): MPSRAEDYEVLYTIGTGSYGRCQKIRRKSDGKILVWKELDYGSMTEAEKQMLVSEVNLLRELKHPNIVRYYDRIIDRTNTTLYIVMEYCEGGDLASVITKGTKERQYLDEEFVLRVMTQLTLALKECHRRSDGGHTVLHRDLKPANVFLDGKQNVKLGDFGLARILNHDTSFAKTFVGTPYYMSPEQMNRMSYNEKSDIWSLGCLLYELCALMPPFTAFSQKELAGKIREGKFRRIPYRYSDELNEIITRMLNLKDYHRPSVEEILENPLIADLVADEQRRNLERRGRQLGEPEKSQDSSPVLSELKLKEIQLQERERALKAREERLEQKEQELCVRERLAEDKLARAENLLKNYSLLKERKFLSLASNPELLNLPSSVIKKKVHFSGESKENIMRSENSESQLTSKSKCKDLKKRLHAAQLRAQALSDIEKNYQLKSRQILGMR
condition: at 10 µM
Description: Millipore: Percentage of residual kinase activity of NEK2 at 10uM relative to control. Control inhibitor: Phosphoric acid* at 0.3uM. Buffer: 8 mM MOPS pH 7.0, 0.2 mM EDTA
The reply should consist of the numeric value with the unit placed after it.

1) O=C(NC(NC(=S)Nc1ccc(F)c([N+](=O)[O-])c1)C(Cl)(Cl)Cl)C(c1ccccc1)c1ccccc1 (stereo not drawn)
88%

input: Quick one: residual activity for O=C(c1cc2cc(O)ccc2[nH]1)c1cc2cc(O)ccc2[nH]1 ?
output: 73%

input: Quick one: residual activity for Nc1nc(Nc2ccc(S(N)(=O)=O)cc2)nn1C(=O)c1c(F)cccc1F ?
output: 70%

input: Quick one: residual activity for COc1cc2nccc(Oc3ccc(NC(=S)NC(=O)c4ccccc4C)cc3)c2cc1OC ?
output: 82%

input: Quick one: residual activity for O=c1cc(N2CCNCC2)oc2c(-c3ccccc3)cccc12 ?
output: 92%

input: Quick one: residual activity for COc1cc2c(cc1OC)-c1n[nH]c(Nc3cccc(F)c3)c1C2 ?
output: 80%

input: Quick one: residual activity for O=C1Nc2ccc(Cl)cc2/C1=C/c1cc(Cl)c(O)c(Cl)c1 ?
output: 89%

input: Quick one: residual activity for COc1ccc(Cl)cc1NC(=O)Nc1cc(C)nc2ccccc12 ?
output: 86%

====

The reader will find reported residual activity values listed item by item below.
assay system: Protein kinase C gamma type (Homo sapiens) (UniProt P05129)
condition: at 1 µM
Provide the reading as a plain figure in %.

Solved entries:
1) O=C(Nc1nc2ccccc2n1CCN1CCOCC1)c1cccc([N+](=O)[O-])c1
105
2) c1ccc(-c2cnc(Nc3ccc(OCCN4CCCC4)cc3)s2)cc1
123
3) N#C/C(=C1/Nc2ccccc2S1)c1ccnc(NCCc2cccnc2)n1
95
4) Nc1ncnc2c1c(-c1ccc(Oc3ccccc3)cc1)cn2C1CCCC1
111
5) O=C(CCCc1ccc(-c2ccccc2F)cc1)Nc1ccc(O)cc1
104
6) Cn1sc(=O)n(Cc2ccccc2)c1=O
59

Next up:
input: Quick one: residual activity for CC(C)[C@H](CO)Nc1nc(Nc2cc(N)cc(Cl)c2)c2ncn(C(C)C)c2n1 ?
output: 94

====

assay system: Mitogen-activated protein kinase 14 (Homo sapiens)
condition: at 10 µM
recorded endpoint: residual activity (%)
Provide the reading as a plain figure in %.

Solved entries:
1) CC(C)[C@H](CO)Nc1nc(Nc2cc(N)cc(Cl)c2)c2ncn(C(C)C)c2n1
95
2) CCCC(=O)Oc1ccc2[nH]c(C(=O)c3cc4ccccc4[nH]3)cc2c1
81
3) NC(=O)Nc1sc(-c2ccc(F)cc2)cc1C(N)=O
77
4) O=C1Nc2ccccc2/C1=C\c1c(Cl)[nH]c2ccccc12
45

input: Quick one: residual activity for COc1cc2nccc(Oc3ccc(NC(=S)NC(=O)c4ccccc4C)cc3)c2cc1OC ?
output: 68

input: Quick one: residual activity for O=c1c(-c2ccc(F)cc2)c(-c2ccncc2)[nH]n1-c1ccc(Cl)cc1 ?
output: 0

input: Quick one: residual activity for CSc1nc(-c2ccc(F)cc2)c(-c2ccnc(NC(C)c3ccccc3)c2)[nH]1 (stereo not given) ?
output: 0

input: Quick one: residual activity for O=c1cc(N2CCNCC2)oc2c(-c3ccccc3)cccc12 ?
output: 98

input: Quick one: residual activity for O=C1C(Cl)=C(N2C(=O)CCC2=O)C(=O)c2ccccc21 ?
output: 92

input: Quick one: residual activity for O=C1NC(=O)C(c2cn(CCCn3ccnc3)c3ccccc23)=C1Nc1ccccc1 ?
output: 78
